# Test system: HeLa Kyoto
# assay: solubility in G1/S (NP-40 vs SDS abundance) (log2 ratio); higher = more soluble
# condition set: cell cycle stage: G1/S
Each entry below lists one item and its recorded solubility in G1/S (log2) value.
measure name: solubility in G1/S (log2)

[[record]]
sequence_data = "MASILRSPQALQLTLALIKPDAVAHPLILEAVHQQILSNKFLIVRMRELLWRKEDCQRFYREHEGRFFYQRLVEFMASGPIRAYILAHKDAIQLWRTLMGPTRVFRARHVAPDSIRGSFGLTDTRNTTHGSDSVVSASREIAAFFPDFSEQRWYEEEEPQLRCGPVCYSPEGGVHYVAGTGGLGPA [NME6]"
target_under_test = "HeLa Kyoto"
measure_name = "solubility in G1/S (log2)"
observed = 0.31

[[record]]
sequence_data = "MSGWADERGGEGDGRIYVGNLPTDVREKDLEDLFYKYGRIREIELKNRHGLVPFAFVRFEDPRDAEDAIYGRNGYDYGQCRLRVEFPRTYGGRGGWPRGGRNGPPTRRSDFRVLVSGLPPSGSWQDLKDHMREAGDVCYADVQKDGVGMVEYLRKEDMEYALRKLDDTKFRSHEGETSYIRVYPERSTSYGYSRSRSGSRGRDSPYQSRGSPHYFSPFRPY [SRSF9]"
target_under_test = "HeLa Kyoto"
measure_name = "solubility in G1/S (log2)"
observed = -0.159


###

# System: HeLa Kyoto
# assay: thermal stability score vs G1/S (z-score of summed log2 fold changes over temperatures); higher = more thermally stable than in G1/S
# condition set: cell cycle stage: early G1 (4.5 h after nocodazole release)
measure name: thermal stability score

[[record]]
sequence_data = "MATGGYRTSSGLGGSTTDFLEEWKAKREKMRAKQNPPGPAPPGGGSSDAAGKPPAGALGTPAAAAANELNNNLPGGAPAAPAVPGPGGVNCAVGSAMLTRAAPGPRRSEDEPPAASASAAPPPQRDEEEPDGVPEKGKSSGPSARKGKGQIEKRKLREKRRSTGVVNIPAAECLDEYEDDEAGQKERKREDAITQQNTIQNEAVNLLDPGSSYLLQEPPRTVSGRYKSTTSVSEEDVSSRYSRTDRSGFPRYNRDANVSGTLVSSSTLEKKIEDLEKEVVRERQENLRLVRLMQDKEEMIGKLKEEIDLLNRDLDDIEDENEQLKQENKTLLKVVGQLTR [PAWR]"
observed = -0.931


###

# System: HeLa Kyoto
# assay: solubility in G1/S (NP-40 vs SDS abundance) (log2 ratio); higher = more soluble
# condition set: cell cycle stage: G1/S
measure name: solubility in G1/S (log2)

[[record]]
sequence_data = "MAEKVLVTGGAGYIGSHTVLELLEAGYLPVVIDNFHNAFRGGGSLPESLRRVQELTGRSVEFEEMDILDQGALQRLFKKYSFMAVIHFAGLKAVGESVQKPLDYYRVNLTGTIQLLEIMKAHGVKNLVFSSSATVYGNPQYLPLDEAHPTGGCTNPYGKSKFFIEEMIRDLCQADKTWNAVLLRYFNPTGAHASGCIGEDPQGIPNNLMPYVSQVAIGRREALNVFGNDYDTEDGTGVRDYIHVVDLAKGHIAALRKLKEQCGCRIYNLGTGTGYSVLQMVQAMEKASGKKIPYKVVARREGDVAACYANPSLAQEELGWTAALGLDRMCEDLWRWQKQNPSGFGTQA [GALE]"
observed = 0.453

[[record]]
sequence_data = "MSESSSKSSQPLASKQEKDGTEKRGRGRPRKQPPVSPGTALVGSQKEPSEVPTPKRPRGRPKGSKNKGAAKTRKTTTTPGRKPRGRPKKLEKEEEEGISQESSEEEQ [HMGA1]"
observed = 0.583

[[record]]
sequence_data = "MDFENLFSKPPNPALGKTATDSDERIDDEIDTEVEETQEEKIKLECEQIPKKFRHSAISPKSSLHRKSRSKDYDVYSDNDICSQESEDNFAKELQQYIQAREMANAAQPEESTKKEGVKDTPQAAKQKNKNLKAGHKNGKQKKMKRKWPGPGNKGSNALLRNSGSQEEDGKPKEKQQHLSQAFINQHTVERKGKQICKYFLERKCIKGDQCKFDHDAEIEKKKEMCKFYVQGYCTRGENCLYLHNEYPCKFYHTGTKCYQGEYCKFSHAPLTPETQELLAKVLDTEKKSCK [ZC3H8]"
observed = -0.126

[[record]]
sequence_data = "MPDQALQQMLDRSCWVCFATDEDDRTAEWVRPCRCRGSTKWVHQACLQRWVDEKQRGNSTARVACPQCNAEYLIVFPKLGPVVYVLDLADRLISKACPFAAAGIMVGSIYWTAVTYGAVTVMQVVGHKEGLDVMERADPLFLLIGLPTIPVMLILGKMIRWEDYVLRLWRKYSNKLQILNSIFPGIGCPVPRIPAEANPLADHVSATRILCGALVFPTIATIVGKLMFSSVNSNLQRTILGGIAFVAIKGAFKVYFKQQQYLRQAHRKILNYPEQEEA [MARCH5]"
observed = -0.272

[[record]]
sequence_data = "MKFLLDILLLLPLLIVCSLESFVKLFIPKRRKSVTGEIVLITGAGHGIGRLTAYEFAKLKSKLVLWDINKHGLEETAAKCKGLGAKVHTFVVDCSNREDIYSSAKKVKAEIGDVSILVNNAGVVYTSDLFATQDPQIEKTFEVNVLAHFWTTKAFLPAMTKNNHGHIVTVASAAGHVSVPFLLAYCSSKFAAVGFHKTLTDELAALQITGVKTTCLCPNFVNTGFIKNPSTSLGPTLEPEEVVNRLMHGILTEQKMIFIPSSIAFLTTLERILPERFLAVLKRKISVKFDAVIGYKMKAQ [HSD17B11]"
observed = -0.334

[[record]]
sequence_data = "MLGLLVALLALGLAVFALLDVWYLVRLPCAVLRARLLQPRVRDLLAEQRFPGRVLPSDLDLLLHMNNARYLREADFARVAHLTRCGVLGALRELRAHTVLAASCARHRRSLRLLEPFEVRTRLLGWDDRAFYLEARFVSLRDGFVCALLRFRQHLLGTSPERVVQHLCQRRVEPPELPADLQHWISYNEASSQLLRMESGLSDVTKDQ [THEM6]"
observed = -0.64

[[record]]
sequence_data = "MATTAAPAGGARNGAGPEWGGFEENIQGGGSAVIDMENMDDTSGSSFEDMGELHQRLREEEVDADAADAAAAEEEDGEFLGMKGFKGQLSRQVADQMWQAGKRQASRAFSLYANIDILRPYFDVEPAQVRSRLLESMIPIKMVNFPQKIAGELYGPLMLVFTLVAILLHGMKTSDTIIREGTLMGTAIGTCFGYWLGVSSFIYFLAYLCNAQITMLQMLALLGYGLFGHCIVLFITYNIHLHALFYLFWLLVGGLSTLRMVAVLVSRTVGPTQRLLLCGTLAALHMLFLLYLHFAYHKVVEGILDTLEGPNIPPIQRVPRDIPAMLPAARLPTTVLNATAKAVAVTLQSH [YIPF3]"
observed = -0.107


###

# System: HeLa Kyoto
# assay: solubility change mitosis vs G1/S (difference of NP-40 vs SDS log2 ratios) (log2 ratio difference); higher = more soluble in mitosis
measure name: solubility change mitosis (log2)

[[record]]
sequence_data = "MGNVLAASSPPAGPPPPPAPALVGLPPPPPSPPGFTLPPLGGSLGAGTSTSRSSERTPGAATASASGAAEDGACGCLPNPGTFEECHRKCKELFPIQMEGVKLTVNKGLSNHFQVNHTVALSTIGESNYHFGVTYVGTKQLSPTEAFPVLVGDMDNSGSLNAQVIHQLGPGLRSKMAIQTQQSKFVNWQVDGEYRGSDFTAAVTLGNPDVLVGSGILVAHYLQSITPCLALGGELVYHRRPGEEGTVMSLAGKYTLNNWLATVTLGQAGMHATYYHKASDQLQVGVEFEASTRMQDTSVSFGYQLDLPKANLLFKGSVDSNWIVGATLEKKLPPLPLTLALGAFLNHRKNKFQCGFGLTIG [TOMM40]"
target_under_test = "HeLa Kyoto"
measure_name = "solubility change mitosis (log2)"
observed = -0.17

[[record]]
sequence_data = "MELLCCEGTRHAPRAGPDPRLLGDQRVLQSLLRLEERYVPRASYFQCVQREIKPHMRKMLAYWMLEVCEEQRCEEEVFPLAMNYLDRYLSCVPTRKAQLQLLGAVCMLLASKLRETTPLTIEKLCIYTDHAVSPRQLRDWEVLVLGKLKWDLAAVIAHDFLAFILHRLSLPRDRQALVKKHAQTFLALCATDYTFAMYPPSMIATGSIGAAVQGLGACSMSGDELTELLAGITGTEVDCLRACQEQIEAALRESLREASQTSSSPAPKAPRGSSSQGPSQTSTPTDVTAIHL [CCND3]"
target_under_test = "HeLa Kyoto"
measure_name = "solubility change mitosis (log2)"
observed = -0.386


###

# Tested on: HeLa Kyoto
# assay: thermal stability score vs G1/S (z-score of summed log2 fold changes over temperatures); higher = more thermally stable than in G1/S
# condition set: cell cycle stage: early G1 (4.5 h after nocodazole release)
measure name: thermal stability score

[[record]]
sequence_data = "MSEEQFGGDGAAAAATAAVGGSAGEQEGAMVAATQGAAAAAGSGAGTGGGTASGGTEGGSAESEGAKIDASKNEEDEGHSNSSPRHSEAATAQREEWKMFIGGLSWDTTKKDLKDYFSKFGEVVDCTLKLDPITGRSRGFGFVLFKESESVDKVMDQKEHKLNGKVIDPKRAKAMKTKEPVKKIFVGGLSPDTPEEKIREYFGGFGEVESIELPMDNKTNKRRGFCFITFKEEEPVKKIMEKKYHNVGLSKCEIKVAMSKEQYQQQQQWGSRGGFAGRARGRGGGPSQNWNQGYSNYWNQGYGNYGYNSQGYGGYGGYDYTGYNNYYGYGDYSNQQSGYGKVSRRGGHQNSYKPY [HNRNPD]"
measure_name = "thermal stability score"
observed = -3.11

